Data provenance: PubChem BioAssay AID1347419

Measured target: Protein-tyrosine kinase 2-beta (Homo sapiens)
Experimental protocol: antagonists of Pyk2 self-association, primary screen, Q293 cells, FERM NanoBiT luminescence, HTS (AID 1347419);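 note: the deposit names both 25 µM and 10 µM; negative z-score means lost luminescence so less FERM oligomerization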
Design: dose or concentration left out as unconfirmed
Test parameters: stronger effect = lower value
Screen size: about 99,000 compounds; about 820 (0.83%) were called active. Many of the other results were omitted from the sample, so actives are more common in it than they were.
Property: z-score; scope: individual molecules
Value kind: z-score

>  <Molecule>
COc1ccc2[nH]cc(/C=C(/C#N)S(=O)(=O)c3ccccc3)c2c1

>  <Measured number>
-3.31

$$$$
>  <Molecule>
CCc1ccc(Oc2coc3cc(OC(=O)c4cc5ccccc5oc4=O)ccc3c2=O)cc1

>  <Measured number>
-2.06

$$$$
>  <Molecule>
CCCOc1ccc(Cn2ccnc2)cc1[N+](=O)[O-]

>  <Measured number>
1.5

$$$$
>  <Molecule>
Cc1ccccc1-c1nnc(SCC(=O)NCc2ccc3c(c2)OCO3)n1C

>  <Measured number>
0.49

$$$$
>  <Molecule>
CCSc1nc(-c2ccc(OC)cc2)cc(-c2ccc(OC)cc2)c1C#N

>  <Measured number>
-1.07

$$$$
>  <Molecule>
O=C(CSC(=S)N1CCOCC1)c1ccccc1

>  <Measured number>
0.14

$$$$
>  <Molecule>
CCOc1cc(-c2cc(-c3ccc(OC)cc3)nc(N)c2C#N)ccc1O

>  <Measured number>
-3.73

$$$$
>  <Molecule>
Cc1nc(SCC(=O)c2ccccc2)c([N+](=O)[O-])[nH]1

>  <Measured number>
-0.67

$$$$
>  <Molecule>
CCn1c(/C=C/Nc2ccccc2)[n+](CC)c2ccc(C(=O)OCC(F)(F)F)cc21

>  <Measured number>
1.39

$$$$
>  <Molecule>
Cc1ccccc1-n1c(SCC(=O)NCc2cccs2)nnc1-c1ccncc1

>  <Measured number>
-0.72

$$$$
>  <Molecule>
Cc1nn(Cc2ccccc2)c2c1C(c1ccccc1)C(C#N)=C(N)O2 (centres undefined)

>  <Measured number>
-3.32

$$$$
>  <Molecule>
Cc1cc(C)c2[nH]c(=O)c(C(c3nnnn3Cc3ccc4c(c3)OCO4)N3CCCC3)cc2c1 (centres undefined)

>  <Measured number>
0.33

$$$$
>  <Molecule>
COC(=O)c1cn(CC(=O)NCc2cccs2)c2ccccc12

>  <Measured number>
-0.4

$$$$
>  <Molecule>
CC(=O)c1c(O)cc2n(c1=O)-c1ccc(Cl)cc1C2(C)C

>  <Measured number>
-0.76

$$$$
>  <Molecule>
Cc1cccc(C(=O)c2cccc(C)c2)c1

>  <Measured number>
0.43

$$$$
>  <Molecule>
COc1ccc(C2CC(=O)Nc3sc(=N)c4c(N)c(C#N)c(N)nc4c32)cc1OC (centres undefined)

>  <Measured number>
-1.89

$$$$
>  <Molecule>
C=CCn1c(SCC(=O)NCc2ccccc2)nnc1-c1cc(Br)ccc1O

>  <Measured number>
-0.9

$$$$
>  <Molecule>
CC(C)C(=O)Nc1ccc2c3c(cccc13)CC2

>  <Measured number>
-0.27

$$$$
>  <Molecule>
COc1cc(-c2cc(C(=O)OCC(=O)Nc3ccc4c(c3)OCO4)c3ccccc3n2)cc(OC)c1OC

>  <Measured number>
-0.31

$$$$
>  <Molecule>
N#C/C(=C\c1ccc(N2CCOCC2)o1)C(=O)N1CCOCC1

>  <Measured number>
0.12

$$$$
>  <Molecule>
CCOc1cccc(-c2nn3c(-c4ccccn4)nnc3s2)c1

>  <Measured number>
-1.53

$$$$
>  <Molecule>
COC(=O)C1=NNC2(c3ccc(C)cc3)C(=O)N(c3cccc(C)c3C)C(=O)C12 (centres undefined)

>  <Measured number>
-0.49

$$$$
>  <Molecule>
CC(C)NC(=O)C(=O)NCCCOC(C)C

>  <Measured number>
0.05

$$$$
>  <Molecule>
Cc1ccc(CNC(=O)COc2ccc3c(c2)CCC3)cc1

>  <Measured number>
1.09

$$$$
>  <Molecule>
CC(C)CC(=O)NC(=S)Nc1cc(C(=O)O)ccc1Cl

>  <Measured number>
0.14

$$$$
>  <Molecule>
CC1CCN(C(=S)NC2CC3CCC2C3)CC1 (centres undefined)

>  <Measured number>
-0.08

$$$$
>  <Molecule>
COCCNC(=O)Cn1cc(C(=O)c2cccs2)c2ccccc21

>  <Measured number>
-0.12

$$$$
>  <Molecule>
COc1ccc(-c2cc(C(F)(F)F)nc(SCC(=O)Nc3ccc4c(c3)OCO4)n2)cc1OC

>  <Measured number>
-0.25

$$$$
>  <Molecule>
COc1ccc2[nH]c3ccc(OC)cc3c2c1

>  <Measured number>
-0.72

$$$$
>  <Molecule>
c1ccc(-c2cc(-c3nnc4sc(-c5ccccn5)nn34)[nH]n2)cc1

>  <Measured number>
-3.26

$$$$
>  <Molecule>
COc1cccc(NC(=O)c2nn(C34CC5CC(CC(C5)C3)C4)cc2[N+](=O)[O-])c1

>  <Measured number>
-0.19

$$$$
>  <Molecule>
COc1ccc(-c2cc(C3CCN(c4ncccc4[N+](=O)[O-])CC3)[nH]n2)cc1

>  <Measured number>
-3.98

$$$$
>  <Molecule>
Cc1nn(CC(=O)Nc2ccc(N(C)C)cc2)c(C)c1[N+](=O)[O-]

>  <Measured number>
-0.87

$$$$
>  <Molecule>
CC(C)(C)n1nnnc1C(c1ccc(F)cc1)N1CCN(Cc2ccc3c(c2)OCO3)CC1 (centres undefined)

>  <Measured number>
-0.6

$$$$
>  <Molecule>
C=CCn1c(CSc2nc3ccccc3s2)nnc1SCC(=O)NCc1ccco1

>  <Measured number>
0.84

$$$$
>  <Molecule>
CCNC(=S)N1CCN(c2ncccn2)CC1

>  <Measured number>
0.25

$$$$
>  <Molecule>
CCN(CC)CC(=O)c1c[nH]c2ccc(OC)cc12

>  <Measured number>
-0.09

$$$$
>  <Molecule>
Cc1ccc(-n2c(SCC(=O)NCc3ccc4c(c3)OCO4)nnc2-c2cccnc2)c(C)c1

>  <Measured number>
-4.03

$$$$
>  <Molecule>
CC1=NN(Cc2ccccc2)C(=O)/C1=C/c1ccc(N(C)C)cc1

>  <Measured number>
-1.29

$$$$
>  <Molecule>
COc1ccc(CC(=O)Nc2cc(S(=O)(=O)N3CCCCC3)ccc2N2CCN(C)CC2)cc1

>  <Measured number>
0.23

$$$$
>  <Molecule>
O=C(Cn1cc(C(=O)c2cccs2)c2ccccc21)NCc1cccs1

>  <Measured number>
-3.3

$$$$
>  <Molecule>
COC(=O)N/N=C/c1cn(CCCOc2ccc(C)cc2)c2ccccc12

>  <Measured number>
-1.26

$$$$
>  <Molecule>
C=CCn1c(SCC(=O)Nc2nc3ccccc3s2)nnc1-c1ccccc1O

>  <Measured number>
-3.16

$$$$
>  <Molecule>
Fc1ccccc1C(c1nnnn1Cc1ccc2c(c1)OCO2)N1CCN(Cc2ccccc2)CC1 (centres undefined)

>  <Measured number>
-3.73

$$$$
